system: virus HIV-1 (souche HTLV-IIIB); test: anti-HIV activity in HIV-infected MT4 cells (MTT method); assay type: cell-based; conditions: tableau 6; MT-4, without thymidine / déoxy-cytidine
measuredQuantity: SI

> print(dat)
                                   compound  measuredquantity  measurednumber
1  CC(=O)N[C@@H](CC(=O)OC[C@H]1O[C@@H](n2cc(C)c(=O)[nH]c2=O)C[C@@H]1N=[N+]=[N-])C(=O)O                SI            4046
2  Cc1cn([C@H]2C[C@H](N=[N+]=[N-])[C@@H](COC(=O)[C@@H](NC(=O)OC(C)(C)C)C(C)C)O2)c(=O)[nH]c1=O                SI            5740
3  Cc1cn([C@H]2C[C@H](N=[N+]=[N-])[C@@H](COC(=O)[C@@H](N)C(C)C)O2)c(=O)[nH]c1=O                SI            5083
4  Cc1cn([C@H]2C[C@H](N=[N+]=[N-])[C@@H](CO)O2)c(=O)[nH]c1=O [AZT, 3′azido-3′déoxythymidine, reference compound]                SI            2780

----------
system: cellules MT4; assay: cytotoxicity on non-infected MT4 cells (MTT method); type: cell-based; settings: tableau 6; MT-4, without thymidine / déoxy-cytidine
measuredQuantity: CD₅₀

> print(dat)
                                   compound    result
1  CC(=O)N[C@@H](CC(=O)OC[C@H]1O[C@@H](n2cc(C)c(=O)[nH]c2=O)C[C@@H]1N=[N+]=[N-])C(=O)O  65.06 µM
2  Cc1cn([C@H]2C[C@H](N=[N+]=[N-])[C@@H](COC(=O)[C@@H](N)C(C)C)O2)c(=O)[nH]c1=O   3.65 µM
3  Cc1cn([C@H]2C[C@H](N=[N+]=[N-])[C@@H](COC(=O)[C@@H](NC(=O)OC(C)(C)C)C(C)C)O2)c(=O)[nH]c1=O    420 µM
4  Cc1cn([C@H]2C[C@H](N=[N+]=[N-])[C@@H](CO)O2)c(=O)[nH]c1=O [AZT, 3′azido-3′déoxythymidine, reference compound]   5,06 µM

The reported measurements were obtained from patent EP0357495A2.
